# Assay explanation: Half life in mouse at 5 mg/kg, iv
# Format: ADME, organism-based
# Set-up: dose 5 mg/kg, route intravenous
# Applied conditions: in vivo
Value type: half-life (h)
Field: numeric (h). Do not append units.

# input // fetch half-life given entry CN1CCN(c2ccc3nc(-c4c(N)c5c(F)cccc5[nH]c4=O)[nH]c3c2)CC1 [DOVITINIB]
# output 2.7

* * *

# Assay explanation: AUC in mouse at 20 mg/kg, po
# Assay type: ADME, organism-based
# Parameters: dose 20 mg/kg, route oral
# Applied conditions: plasma
Value type: AUC (ng·h/mL)
Field: numeric (ng·h/mL). Do not append units.

# input // fetch AUC given entry CN1CCN(c2ccc3nc(-c4c(N)c5c(F)cccc5[nH]c4=O)[nH]c3c2)CC1
# output 6000

* * *

# Assay explanation: Cmax in rat at 20 mg/kg, po
# Type: ADME, organism-based
# Design: dose 20 mg/kg, route oral
# Applied conditions: in vivo
Value type: Cmax
// return the numeric value with its unit appended

# input // fetch Cmax given entry CN1CCN(c2ccc3nc(-c4c(N)c5c(F)cccc5[nH]c4=O)[nH]c3c2)CC1
# output 480 ng/mL

* * *

Assay system UniProt:P35968; read-out recorded as IC50.
Field: numeric (nM). Do not append units.

Sample answers from the record:
Structure smiles | IC50 [nM]
CN(C)CC(=O)N(C)c1ccc2[nH]c(-c3c(N)c4ccccc4[nH]c3=O)nc2c1 | 29
CN1CCN(c2ccc3nc(-c4c(N)c5cc(NCc6ccccc6)ccc5[nH]c4=O)[nH]c3c2)CC1 | 21
O=c1[nH]c2ccccc2c(NCC2CCNCC2)c1-c1nc2ccccc2[nH]1 | 940
Cc1ccc2nc(-c3c(N)c4ccccc4[nH]c3=O)[nH]c2c1 | 220

Here is another compound to look at.
# input Give IC50 for CN1CCN(c2cccc3[nH]c(=O)c(-c4nc5ccccc5[nH]4)c(N)c23)CC1 tested on UniProt:P35968.
# output 17

* * *

# Assay explanation: Volume of distribution at steady state in rat at 5 mg/kg, iv
# Format: ADME, organism-based
# Set-up: dose 5 mg/kg, route intravenous
# Applied conditions: in vivo, read-out: Vdss
Value type: Vd
// return the numeric value with its unit appended

# input // fetch Vd given entry CN1CCN(c2ccc3nc(-c4c(N)c5c(F)cccc5[nH]c4=O)[nH]c3c2)CC1 [DOVITINIB]
# output 13 L/kg

* * *

# Assay explanation: Cmax in mouse at 20 mg/kg, po
# Type: ADME, organism-based
# Set-up: dose 20 mg/kg, route oral
# Applied conditions: in vivo
Value type: Cmax (ng/mL)
Field: numeric (ng/mL). Do not append units.

# input // fetch Cmax given entry CN1CCN(c2ccc3nc(-c4c(N)c5c(F)cccc5[nH]c4=O)[nH]c3c2)CC1
# output 670

* * *

# Assay explanation: AUC in rat at 20 mg/kg, po
# Type: ADME, organism-based
# Set-up: dose 20 mg/kg, route oral
# Applied conditions: plasma
Value type: AUC (ng·h/mL)
Field: numeric (ng·h/mL). Do not append units.

# input // fetch AUC given entry CN1CCN(c2ccc3nc(-c4c(N)c5c(F)cccc5[nH]c4=O)[nH]c3c2)CC1
# output 5670

* * *

Assay system Vascular endothelial growth factor receptor 2 (Homo sapiens); read-out recorded as pIC50.
In simple prose, pIC50 is minus the logarithm base ten of a concentration in moles per litre.

Compound | pIC50
CN1CCN(c2ccc3nc(-c4c(N)c5cc(C(=O)NCc6ccccc6)ccc5[nH]c4=O)[nH]c3c2)CC1 | 7.30
CCC1CCN(C)C(Nc2c(-c3nc4ccccc4[nH]3)c(=O)[nH]c3ccccc23)C1 (centres undefined) | 6.77
CN1CCN(c2ccc3[nH]c(-c4c(N)c5c(Cl)cccc5[nH]c4=O)nc3c2)CC1 | 7.85
Cc1cccc2[nH]c(=O)c(-c3nc4ccc(N5CCN(C)CC5)cc4[nH]3)c(N)c12 | 7.92
CN1CCN(c2ccc3nc(-c4c(N)c5ccc(F)cc5[nH]c4=O)[nH]c3c2)CC1 | 7.85
Nc1c(-c2nc3cc(N4CCOCC4)ccc3[nH]2)c(=O)[nH]c2ccccc12 | 7.24
CN(C)[C@H]1CCN(c2ccc3[nH]c(-c4c(N)c5ccccc5[nH]c4=O)nc3c2)C1 | 7.22
CNc1ccc2c(N)c(-c3nc4ccc(N5CCN(C)CC5)cc4[nH]3)c(=O)[nH]c2c1 | 6.00

Here is another compound to look at.
# input Give pIC50 for Nc1c(-c2nc3ccccc3[nH]2)c(=O)[nH]c2ccccc12 tested on Vascular endothelial growth factor receptor 2 (Homo sapiens).
# Sequence (P35968 whole entry): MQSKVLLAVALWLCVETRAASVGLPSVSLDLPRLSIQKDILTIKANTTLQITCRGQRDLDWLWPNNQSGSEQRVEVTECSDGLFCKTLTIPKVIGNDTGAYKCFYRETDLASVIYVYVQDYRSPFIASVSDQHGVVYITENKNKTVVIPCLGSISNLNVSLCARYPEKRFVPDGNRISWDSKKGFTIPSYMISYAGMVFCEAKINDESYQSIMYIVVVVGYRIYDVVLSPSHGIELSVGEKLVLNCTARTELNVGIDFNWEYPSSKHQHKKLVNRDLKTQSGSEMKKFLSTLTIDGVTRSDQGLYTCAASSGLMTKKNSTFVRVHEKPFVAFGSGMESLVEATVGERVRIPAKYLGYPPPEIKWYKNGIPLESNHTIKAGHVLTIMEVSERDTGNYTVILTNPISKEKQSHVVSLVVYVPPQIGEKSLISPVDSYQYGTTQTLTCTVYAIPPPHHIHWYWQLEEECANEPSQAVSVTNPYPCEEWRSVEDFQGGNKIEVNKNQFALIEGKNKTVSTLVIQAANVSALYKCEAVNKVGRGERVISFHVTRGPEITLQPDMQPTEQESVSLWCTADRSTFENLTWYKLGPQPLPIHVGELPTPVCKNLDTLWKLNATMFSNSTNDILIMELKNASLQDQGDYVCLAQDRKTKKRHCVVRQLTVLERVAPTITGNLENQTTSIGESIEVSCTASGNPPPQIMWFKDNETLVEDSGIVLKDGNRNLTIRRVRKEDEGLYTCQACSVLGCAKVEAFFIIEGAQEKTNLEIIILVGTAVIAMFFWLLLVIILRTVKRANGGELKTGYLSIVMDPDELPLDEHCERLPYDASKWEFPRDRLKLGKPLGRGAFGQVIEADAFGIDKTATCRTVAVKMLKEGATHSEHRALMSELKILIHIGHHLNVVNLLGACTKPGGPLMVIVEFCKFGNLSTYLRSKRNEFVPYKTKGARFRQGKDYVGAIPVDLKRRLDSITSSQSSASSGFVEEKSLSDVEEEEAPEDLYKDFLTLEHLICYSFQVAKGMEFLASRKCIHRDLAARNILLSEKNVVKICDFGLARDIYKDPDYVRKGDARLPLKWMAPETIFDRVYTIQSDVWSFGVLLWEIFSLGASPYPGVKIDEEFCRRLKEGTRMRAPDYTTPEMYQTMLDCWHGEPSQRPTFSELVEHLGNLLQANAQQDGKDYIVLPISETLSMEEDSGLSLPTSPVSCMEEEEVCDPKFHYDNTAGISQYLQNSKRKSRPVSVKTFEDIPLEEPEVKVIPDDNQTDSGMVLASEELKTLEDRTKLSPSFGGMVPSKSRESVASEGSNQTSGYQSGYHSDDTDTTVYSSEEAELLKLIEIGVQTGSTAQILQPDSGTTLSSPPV
# output 7.24
